Attribution: ChEMBL document CHEMBL1201862

OBSERVED PROPERTY: GI50 (µM)
State just the number; it will be interpreted in µM.

Incoming: // map `COc1ccc(-c2oc3c(OC)c(OC)c(OC)c(OC)c3c(=O)c2OC)cc1OC` to recorded GI50 (system: HCT-15)
Outgoing: 35.9

Incoming: Checklist item: GI50 tested on HCT-15, entry COc1ccc2c3c([nH]c2c1[N+](=O)[O-])C(C)N(Cc1ccccc1)CC3 (stereo not given) , value?
Outgoing: 3.61

----------
# Tested on: M19-MEL
# EXPERIMENTAL PROTOCOL: NCI tumour cell line growth inhibition, 48 h
Active and inactive are the calls of the source. Cut-off read from the data, not from the text of the source: active = GI50 up to about 1.1 µM and inactive = higher.
Outcome field: choose from class 1 = active, class 0 = inactive

Incoming: Could you check what this test reported for c1ccc(C2SCc3nc4ccccc4n32)cc1 (stereo not drawn) ?
Outgoing: class 0

Incoming: Recorded test call requested for `Cc1cc(NC(=O)NC(=O)c2ccccc2N)ccc1Oc1ncc(Br)cn1`
Outgoing: class 1

Incoming: Check the results log: what was the call for `Cn1c2ccccc2n2c3nc4ccccc4nc3c(C#N)c12` ?
Outgoing: class 1

Incoming: Kindly provide the recorded test outcome for the following compound: `O=C(Nc1cccc2ccccc12)Oc1ccccc1C1CCCCC1`
Outgoing: class 0

Incoming: What is the recorded call for this compound in the test? `O=C1C=C(N2CCCC2)C=C(N2CCCC2)C1`
Outgoing: class 0

Incoming: Name the outcome recorded for `C[N+](C)(C)Cc1c(CC#N)[nH]c2ccccc12` in the assay.
Outgoing: class 0

Incoming: Assay result, entry `O=c1c2ccccc2n2cnc3ccc(NCCNCCO)c1c32` — outcome?
Outgoing: class 0

Incoming: What did this assay record as the result for [O-][S+]1[C@H](c2ccccc2)c2c(-c3ccccc3)sc(-c3ccccc3)c2[C@@H]1c1ccccc1 (stereo partly drawn) ?
Outgoing: class 0

Incoming: What call does the record list for `O=C(c1ccccc1)c1nc2c(Cl)ccc(Cl)c2cc1C(Br)Br` ?
Outgoing: class 0

Incoming: // outcome(item) with item = O=C1NC2(CCCCC2)C2CCCCC=C12 (stereo not drawn)
Outgoing: class 0

Incoming: Outcome? CC1OC(CO)(n2cnc3c(N)ncnc32)C(O)C1O (stereo not drawn)
Outgoing: class 0

Incoming: // outcome(item) with item = `Cc1ccccc1C(=O)N1CCN(C(=O)c2ccccc2C)CC1`
Outgoing: class 0

Incoming: Which result was noted for this compound in the test: CC(C)CCCCCCCCCCCCC(=O)NCC(=O)NC1C(O)C(O)C(Nc2[nH]cnc3ncnc2-3)OC1C(O)CO (stereo not drawn)
Outgoing: class 1

Incoming: Could you check what this test reported for `O=C(CC/C(CC(=O)c1ccc(Cl)cc1)=N/O)Nc1ccc(Cl)c(Cl)c1` ?
Outgoing: class 0

Incoming: Please state the recorded outcome for this compound: `CCCCn1c(-c2ccccc2)cs/c1=N\NC(=O)Cn1c(C)nc2ccccc21`
Outgoing: class 0

Incoming: # lookup: test call for CCOc1ccc2nc(NC(=O)C(=O)C(C(=O)c3ccccc3F)C3OC(=O)c4ccccc43)sc2c1 (stereo not drawn)
Outgoing: class 0

Incoming: Dear colleague, could you share the recorded outcome for COc1ccc(C(=O)C(CO)Oc2ccccc2OC)cc1OC (stereo not drawn) when you have a moment?
Outgoing: class 0

Incoming: What was the test verdict on `O=C(c1ccc(Cl)cc1)c1ccc(OCCSCCCCCCCCCCSCCOc2ccc(C(=O)c3ccc(Cl)cc3)cc2)cc1` ?
Outgoing: class 0

Incoming: Give the logged outcome of this assay for the following compound: `O=C1COc2cc(NC(=S)Nc3ccccc3)ccc2N1`
Outgoing: class 0

Incoming: Dear colleague, could you share the recorded outcome for C=CCC1C(=O)C(C(=O)OC)N2CCc3c([nH]c4ccccc34)C12 (stereo not drawn) when you have a moment?
Outgoing: class 0

Incoming: How did this test come out for CC(C)(C)c1cc(C#N)c2c(c1)C(=O)OC2(c1ccccc1)c1ccccc1C#N (stereo not drawn) ?
Outgoing: class 0

Incoming: Could you kindly confirm the outcome this assay logged for CC(=O)OC1C(O)C(C)OC(OC(=O)C2CCC3C(C2)OC2(CC(OC(=O)/C=C/c4ccccc4)C(C)CO2)C32CO2)C1OC1OC(C)C(O)C(O)C1O (stereo not drawn) ?
Outgoing: class 1

Incoming: Outcome logged for `COc1ccc2c3c(c(C(=O)c4ccccc4)oc13)CCC2` in this assay:
Outgoing: class 0

Incoming: Record lookup: outcome of this test for `COc1cc2ccc(/C(C)=N/OC(C)=O)cc2cc1OC` ?
Outgoing: class 0

Incoming: What is the recorded call for this compound in the test? C=CCC1(CN(C)C)CC/C(=C\c2ccc(OC)cc2)C1=O (stereo not drawn)
Outgoing: class 0

Incoming: Called result for `O=Cc1cn(S(=O)(=O)c2ccccc2)c2ccccc12`
Outgoing: class 0

Incoming: For this compound, state the assay outcome: `O=S1(=O)[C@H](c2ccccc2)c2c(-c3ccccc3)sc(-c3ccccc3)c2[C@@H]1c1ccccc1`
Outgoing: class 0

Incoming: Assay outcome for CC(C)(C)OC(=O)NC1CCC(C(C)(C)C)CC1 (stereo not drawn) : what was it?
Outgoing: class 0

Incoming: Check the results log: what was the call for `CCCCc1c2c(nc3c1CC/C(=C\c1ccc([N+](=O)[O-])cc1)C3=O)CCCC2` ?
Outgoing: class 0

Incoming: Answer briefly: the call reported for `CCOC(=O)C(=O)Nc1c(C)cccc1C(C)(C)C` in this assay.
Outgoing: class 0

Incoming: Hey, what did the test say about `Cc1nc2c(sc(=S)n2-c2ccccc2)c2nc3ccccc3n12` ?
Outgoing: class 0

Incoming: For Nc1nc(SCCNC(=O)CCc2ccc(O)cc2)nc2c1ncn2C1OC(CO)C(O)C1O (stereo not drawn) , which call appears in the assay record?
Outgoing: class 0

Incoming: Which outcome was entered for the compound `O=c1c2ccccc2c2c3c1cccc3c1cccc3c(=O)c4ccccc4c2c31` in this test?
Outgoing: class 0

----------
# Tested on: SK-MEL-2
# EXPERIMENTAL PROTOCOL: NCI tumour cell line growth inhibition, 48 h
Calls of active or inactive are those of the source. Cut-off read from the data, not from the text of the source: active = GI50 up to about 1.1 µM and inactive = higher.
OBSERVED PROPERTY: GI50

Incoming: Which value of GI50 has been reported for `CC[C@@]1(O)C(=O)OCc2c1cc1n(c2=O)Cc2c-1nc1ccccc1c2/C=N/NC(=O)c1ccc(N)cc1` in the records?
Outgoing: 5.37 µM (inactive)

Incoming: Value lookup for GI50; key = C=CCC(SC)C1=C(C)C(=O)c2ccccc21 (stereo not given)
Outgoing: > 10 µM (inactive)

Incoming: Reported GI50, molecule `Cc1cccc(CNNC(=O)c2cc[n+]([BH2-]C#N)cc2)c1` : ____
Outgoing: 34.9 µM (inactive)

Incoming: Entry under review: `COc1cccc2[nH]c(-c3ccccn3)nc12` . Reported GI50?
Outgoing: > 100 µM (inactive)

Incoming: Dear colleague, I am looking for the recorded GI50 of the following molecule: `O=Cc1c(O)c(C(=O)Nc2ccc3[nH]c(=O)[nH]c3c2)cc2ccccc12`
Outgoing: > 100 µM (inactive)

Incoming: Entry COc1ccc2c3c([nH]c2c1[N+](=O)[O-])C(C)N(Cc1ccccc1)CC3 (stereo not given) has what GI50?
Outgoing: 3.52 µM (inactive)

Incoming: Which GI50 value is on record for C=C[C@H]1CC[C@H]2[C@@H]3CC=C4C[C@@H](OC5OCC(O)C(O)C5O)CC[C@]4(C)[C@H]3CC[C@]12C (stereo not given in full) ?
Outgoing: 16.6 µM (inactive)

Incoming: Look at this molecule and give its reported GI50. `COC(=O)CC(=O)Nc1sccc1S(=O)(=O)c1ccccc1`
Outgoing: 66.2 µM (inactive)

Incoming: # GI50 lookup, item `C[C@H]1S[C@H](c2c(Cl)cccc2Cl)N2Cc3ccccc3N=C12`
Outgoing: 10.1 µM (inactive)

Incoming: Can you share its GI50? I mean this molecule: `C[N+](C)=c1nc(N2CCOCC2)ss1`
Outgoing: > 100 µM (inactive)

----------
# System: CCRF-CEM
# EXPERIMENTAL PROTOCOL: NCI tumour cell line growth inhibition, 48 h
The source made the active and inactive calls. No stated cut-off is given here; in the data, active = GI50 up to about 1.1 µM and inactive = higher.
OBSERVED PROPERTY: GI50

Incoming: For CCRF-CEM, provide GI50 of `O=C(Nc1ccc(Cl)cc1)c1cc([N+](=O)[O-])ccc1O` please.
Outgoing: 2.64 µM (inactive)

Incoming: GET /values?readout=GI50&system=CCRF-CEM&item= CC(=O)OCCC[C@@H]1C(=C(C)C)CCC2[C@@]1(C)CC[C@@]1(C)C[C@](C)(CCC=C(C)C)CC[C@]21C (stereo not given in full)
Outgoing: > 100 µM (inactive)

Incoming: Form field - read-out: GI50; system: CCRF-CEM; submitted item: `O=C1CCCC2=C1CC1=C(CCCC1=O)N2c1ccc(Cl)cc1`
Outgoing: 69.7 µM (inactive)

Incoming: Write down the reported GI50 of `N#CCCN(CCC#N)c1ccc(/C=C(/NC(=O)c2cc([N+](=O)[O-])ccc2Cl)C(=O)NN)cc1` , test system: CCRF-CEM.
Outgoing: 47.5 µM (inactive)

Incoming: CCRF-CEM / GI50 / `C[C@H]1S[C@H](c2c(Cl)cccc2Cl)N2Cc3ccccc3N=C12` : value?
Outgoing: 21 µM (inactive)

Incoming: Report GI50 for `C#CC[N+](CCO)(CCO)CCCCCCCCCCCCCCCCCC` tested on CCRF-CEM.
Outgoing: 2.03 µM (inactive)

Incoming: Please state recorded GI50 (tested on CCRF-CEM) of C=CCNC(=O)CN(CC(=O)OC)C1CCCCC1N(CC(=O)OC)CC(=O)OC (stereo not given)
Outgoing: > 100 µM (inactive)

Incoming: What measured GI50 is associated with `CCCCC(=O)OC[n+]1ccc(-c2c(COC(=O)NC(C)C)c(COC(=O)NC(C)C)c3n2CCC3)cc1` on CCRF-CEM?
Outgoing: 33.7 µM (inactive)

Incoming: Form field - read-out: GI50; system: CCRF-CEM; submitted item: COC1OC(CO)C(O)C(O)C1Br (stereo not given)
Outgoing: > 100 µM (inactive)

Incoming: Any idea what GI50 came out for `CCOC(=O)C(C(=O)OCC)C(NC(=O)Nc1cc(C(F)(F)F)ccc1OC)(C(F)(F)F)C(F)(F)F` on CCRF-CEM?
Outgoing: 20.8 µM (inactive)
